Values were extracted from ChEMBL document CHEMBL1201862.

System: BT-549
procedure.text: NCI tumour cell line growth inhibition, 48 h
The source made the active and inactive calls. No stated cut-off is given here; in the data, active = GI50 up to about 1.1 µM and inactive = higher.
Please provide measured GI50 for the entries that follow.

CCOC(=O)c1c[nH]c(C(=O)C=[N+]=[N-])c1C1CCN(CC)C1=S (stereo not given) ... > 100 µM (inactive)
CC1=CC2C(C(C)C)CC1C1C(=O)OC(=O)C21 (stereo not given) ... 84.1 µM (inactive)

Lab note: each compound below needs its GI50 filled in.
1. O=C1/C(=C/c2ccccc2S)N=C(c2ccccc2)N1c1nc2ccc(Sc3ccccc3)cc2[nH]1
2. CC1(C)OC(C(C)(C)O)C(C(C)(C)O)O1 (stereo not given)
3. CCN(CC)C(=S)SNCc1ccc(S(N)(=O)=O)cc1
4. Cc1cccc2c(N)c3cccc(C(=O)NCC[N+](C)(C)Cc4ccc([N+](=O)[O-])s4)c3nc12
5. Oc1nc(-c2cccc(F)c2)nc2ccccc12

22.1 µM (inactive)
> 100 µM (inactive)
18.5 µM (inactive)
33.5 µM (inactive)
> 46.9 µM (inactive)

Lab note: each compound below needs its GI50 filled in.
1. COc1cc(Br)cc2c1O[C@H]1C(=O)CC3CC21CCN3C (stereo not given in full)
2. Oc1ccc(-c2nc(-c3cccnc3)c(-c3ccc(Cl)cc3)[nH]2)cc1O
3. Cn1ccnc1Sc1ccc(/C=N/NC(=O)c2ccccc2O)cc1[N+](=O)[O-]

1: 48.4 µM (inactive); 2: 10 µM (inactive); 3: 89.7 µM (inactive)

###

Please provide measured GI50 for the entries that follow.
Test system: HT-29
procedure.text: NCI tumour cell line growth inhibition, 48 h
The source made the active and inactive calls. Rule as the data show it: active = GI50 up to about 1.1 µM and inactive = higher.

CC(=O)N(O)Cc1ccccc1 ... > 100 µM (inactive)
CC1(C)C2CCC(=O)C1C(OCc1ccccc1)C2 (stereo not drawn) ... > 100 µM (inactive)
O=C1c2ccccc2OCC1/C=N/O (stereo not drawn) ... 62.7 µM (inactive)
O=P(O)(O)C=C=C1CCCCC1 ... > 100 µM (inactive)

Lab note: each compound below needs its GI50 filled in.
1. CCC(CCCC[C@H]1CC[C@@H]2CC(=O)C[C@H]12)OC (stereo partly drawn)
2. CC(=O)CCC[C@@H](C)[C@@H]1O[C@H]([C@@]2(C)CCC(=O)O2)C[C@H]2C(CSc3ccccc3)C(=O)O[C@@H]12 (stereo partly drawn)
3. C=CCN1C(=O)/C(=C/c2ccc(Cl)cc2)N=C1SC/C=C/C
4. COc1cc(/C=C/C=C2\CC(C)C/C(=C\C=C\c3ccc(O)c(OC)c3)C2=O)ccc1O (stereo not drawn)

["> 100 µM (inactive)", "17 µM (inactive)", "30.9 µM (inactive)", "4.08 µM (inactive)"]

###

Please provide measured GI50 for the entries that follow.
System: M14
procedure.text: NCI tumour cell line growth inhibition, 48 h
Activity calls are given as the source filed them. No stated cut-off is given here; in the data, active = GI50 up to about 1.1 µM and inactive = higher.

Field: example entries. Status: answers known.
CO[C@]12CC(=O)C3(C(C[C@H]4CC5CCC6=CC(=O)CC[C@]6(OC(C)=O)C5C[C@@]43C)C1)C1C[C@H]3[C@@H]4CCC5=CC(=O)CC[C@]5(OC(C)=O)[C@H]4CC[C@]3(C)C12 (stereo not given in full) ... > 100 µM (inactive)
COc1ccccc1NC(=O)CSC(N)=O ... 45.4 µM (inactive)

Lab note: each molecule below needs its GI50 filled in.
1. CCN(C(=N)C#N)c1ccccc1
2. NC1=Nc2ccccc2Sc2nccn21
3. O=C1/C(=C/c2cccc([N+](=O)[O-])c2)COc2ccccc21
4. CCc1cc2c(cc1C(=O)CCC(=O)O)CC1(C2)Cc2cc(CC)c(C(=O)CCC(=O)O)cc2C1
5. Cn1c(=O)c2nc(CCS)[nH]c2n(C)c1=O
6. NC(=S)NS(=O)(=O)c1ccc(F)cc1
7. CN(C)C1(N(C)C)Oc2c(c(=O)n(C)c(=O)n2C)C(c2ccc(C(F)(F)F)cc2)C1(F)F (stereo not given)
8. O=c1[nH]nc(Cc2ccccc2)n1-n1cnnc1

1. > 100 µM (inactive)
2. 17 µM (inactive)
3. 1.83 µM (inactive)
4. > 100 µM (inactive)
5. > 100 µM (inactive)
6. > 100 µM (inactive)
7. > 100 µM (inactive)
8. > 100 µM (inactive)

###

Tested on: CCRF-CEM
procedure.text: NCI tumour cell line growth inhibition, 48 h
Active and inactive are the calls of the source. Rule as the data show it: active = GI50 up to about 1.1 µM and inactive = higher.
The reply should name one outcome from active, inactive

# example entries with known answers
COc1cc2c(cc1OCCCNC(=O)c1cc3ccccc3[nH]1)N=C[C@@H]1CCCN1C2=O ... active
NCCCN1CCN(CCCNc2ccc3ncn4c5ccccc5c(=O)c2c34)CC1 ... inactive
CC(=O)NC1(c2cc3ccccc3s2)CCCCCC1 ... inactive
O=C(CO)CC(=O)C(=O)Nc1nc([N+](=O)[O-])cs1 ... inactive
O=Cc1ccc(-c2cc(C=O)c(-c3cccs3)[nH]2)s1 ... inactive

Status in this test for COc1ccccc1[S+]([O-])Nc1ccccc1 (stereo unspecified) ?
inactive

###

Tested on: MDA-MB-435
procedure.text: NCI tumour cell line growth inhibition, 48 h
Calls of active or inactive are those of the source. Rule as the data show it: active = GI50 up to about 1.1 µM and inactive = higher.
property.label: GI50

Field: example entries. Status: answers known.
O=C(O)c1ccc(Nc2nc3ccccc3nc2C(=O)O)cc1 ... > 100 µM (inactive)
CC(Oc1ccc(Oc2cnc3ccc(Cl)cc3n2)cc1)C(=O)O (centres undefined) ... > 84.5 µM (inactive)
CC(C)(C)c1cc(C(P(=O)(c2ccccc2)c2ccccc2)P(=O)(c2ccccc2)c2ccccc2)cc(C(C)(C)C)c1O ... 1.9 µM (inactive)

Lab note: each compound below needs its GI50 filled in.
1. O=C1NC(N2CCCC(CO)C2)=N/C1=C\c1ccccc1 (centres undefined)
2. CC1(C)CC(=O)C(=CNC(N)=S)C(=O)C1
3. O=C(O)CN(CC(=O)O)C1CCCCC1N1CC(=O)OC(=O)C1 (centres undefined)
4. CCOC(=O)CSc1[nH]c2nc(C)nc(Cl)c2c1C#N

1: > 100 µM (inactive); 2: > 100 µM (inactive); 3: > 100 µM (inactive); 4: > 10 µM (inactive)

Lab note: each compound below needs its GI50 filled in.
1. O=c1[nH]c2cc(Cl)ccc2nc1/C(=N/Nc1ccccc1)C(O)c1ccco1 (centres undefined)
2. Cc1cn(C2CC(n3cc(Cn4cc(Br)c(=O)[nH]c4=O)nn3)C(CO)O2)c(=O)[nH]c1=O (centres undefined)

1. > 100 µM (inactive)
2. 42.1 µM (inactive)

###

System: PC-3
procedure.text: NCI tumour cell line growth inhibition, 48 h
The source made the active and inactive calls. Rule as the data show it: active = GI50 up to about 1.1 µM and inactive = higher.
The reply should name one outcome from active, inactive

CC(C)(C)C1=CC(=CC=C2C=CN(CCCCCCCCCCCO)C=C2)C=C(C(C)(C)C)C1=O ... inactive
C=CC1C(OC2OC(CO)C(O)C(O)C2O)OC=C(C(=O)OC)C1CC1CC(=O)CC(CCc2ccc(O)cc2)O1 (centres undefined) ... inactive
O=P(O)(O)C=C=C1CCCCC1 ... inactive
Cc1ccc2c(c1)NC(c1ccc(C(=O)O)cc1)c1cccn1-2 (centres undefined) ... inactive
COc1cccc(C2c3cc4c(cc3OC(N3CCOCC3)C2C)OCO4)c1OC (centres undefined) ... inactive

Status in this test for COc1cc2c(cc1OCCCNC(=O)c1cc3ccccc3[nH]1)N=C[C@@H]1CCCN1C2=O ?
active

Status in this test for Oc1ccc(-c2nc(-c3cccnc3)c(-c3ccc(Cl)cc3)[nH]2)cc1O ?
inactive

Status in this test for CC(C)[C@H](NC(=O)[C@H](N)Cc1ccc(N(CCCl)CCCl)cc1)C(=O)O ?
inactive

Status in this test for CC(=O)[C@]1(O)Cc2c(O)c3c(c(O)c2[C@@H](OC2CC(N)C(O)C(C)O2)C1)C(=O)c1c(OCc2ccccc2)cccc1C3=O (some centres undefined) ?
inactive

###

System: KM-20L2
procedure.text: NCI tumour cell line growth inhibition, 48 h
Calls of active or inactive are those of the source. Rule as the data show it: active = GI50 up to about 1.1 µM and inactive = higher.
Please provide measured GI50 for the entries that follow.

Cc1cccc2c1C/C(=C1\CCc3c(C)cccc31)C2=O ... > 100 µM (inactive)
COc1nc(N)c(C(=O)CCl)c(=O)n1C ... 18.3 µM (inactive)
NCC(=O)OCN1C(=O)C2C3C=CC(C2C1=O)C1C2C(=O)N(COC(=O)CN)C(=O)C2C31 (stereo unspecified) ... 28.6 µM (inactive)

Lab note: each compound below needs its GI50 filled in.
1. CCOC(=O)C(=O)Nc1c(C)cccc1CC
2. COc1ccc(OC)c2[nH]c(Sc3c([N+](=O)[O-])ncn3C)nc12
3. Cc1nc2c(n1Cc1ccc(F)cc1)C(=O)c1ccccc1C2=O

> 100 µM (inactive)
20.4 µM (inactive)
38.5 µM (inactive)
